Biological target: T1, PDZD7_3, Q9H5P4
T1 sequence (Q9H5P4 857-944, limits assumed, looked up): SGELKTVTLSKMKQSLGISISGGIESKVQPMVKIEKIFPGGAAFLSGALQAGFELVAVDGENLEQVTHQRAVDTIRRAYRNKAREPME
Experiment: holdup assay
Parameters: key: below the threshold = too weak to quantify, mostly under pKd 3.1 to 4
Settings: plain residues with an end cap or a label only (N-terminal biotin on a linker: ahx)

BINDER	pKd
SAPATLSSRA [PDLIM2, Q96JY6]	below the threshold
SKKNELFSNL [NHERF1, O14745]	below the threshold
VNENQKEYFF [CNTNAP4, Q9C0A0]	below the threshold
PKMKLNETSF [SHKBP1, Q8TBC3]	below the threshold
